This collection of values is drawn from patent US20220017616A1.

measured-on: T1, human TIGIT (human, UniProt Q495A1 22-244)
T1 sequence: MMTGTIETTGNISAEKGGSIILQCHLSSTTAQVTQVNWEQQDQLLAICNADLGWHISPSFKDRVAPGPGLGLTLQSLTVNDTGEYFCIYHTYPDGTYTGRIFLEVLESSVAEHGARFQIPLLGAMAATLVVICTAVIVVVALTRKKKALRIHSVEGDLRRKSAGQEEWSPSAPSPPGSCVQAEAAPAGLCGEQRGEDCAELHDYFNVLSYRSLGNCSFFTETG
procedure-details: cell-based or functional assay
recorded-metric: Potency [nM], Jurkat human TIGIT/IL-2-luciferase RGA, n = 2
Record the result as number plus unit.

Sample answers from the record:
58A7 (antibody, V domains shown, Tested as hybridoma supernatant or purified mAb; also called 48B7) VH: QVQLQESGPGLVKPSQTLSLTCTVSGGSISSGGYYWNWIRQHPGKGLEWIGYIYYSGSTFYNPSLKSRVIISVDTSKNQFSLKLSSVTAADTAVYYCARAPRYNWNYGWFDPWGQGTLVTVSS VL: EIVLTQSPGTLSLSPGERATLSCRASQNVSSTYLAWYQQKPGQAPRLLFYGASSRATGIPDRFSRSGSGTDFTLTISRLEPEDFAVYYCQQYDVSPWTFGQGTKVEIK : 2.9 nM
11A3 (antibody, V domains shown, Fully human XenoMouse antibody, tested as hybridoma supernatant or purified mAb) VH: QVQLVQSGAEVKKPGASVKVSCKASGYTFTSYYIHWVRQAPGQGLEWMGIINPSGGRTSYAQMFQGRVTLTRDTSTNTVYMELSSLRSEDTAVFYCAKDREEQWPVGGFDYWGQGTLVTVSS VL: DIQMTQSPSSLSASVGDRVTITCRASQNIRRYLNWYQQKPGKAPELLIYSASNLQNGVPSRFSGSGSGTDFTLTISSLQPEDFATYYCQQSYIIPPTFGQGTKVEIRR : 2.7 nM

# evaluate next
Data request: Identify the reported Potency [nM], Jurkat human TIGIT/IL-2-luciferase RGA, n = 2 for the following entry. 4G10 (antibody, V domains shown, Fully human XenoMouse antibody, tested as hybridoma supernatant or purified mAb) VH: QVQLQESGPGLVNPSQTLSLTCIVSGGSIRSGDYYWSWIRQHPGKGLEWIGYIYYSGGTYYNPSLKSRVIISVDTTKNQFSLKLSSMTAADTAVYYCARGSIAARSGYFYFSGLDVWGQGPTVTVSS VL: EIVLTQTPLSLSVTPGQPASISCKSSQSLLPSDGKTYLSWYLQKPGLPPQVLIYEVSNRFSGVPDRFSGSGSGTDFTLKISRVEAEDVGVYYCMQSIQLPLTFGGGTKVEIKR
Data returned: 15 nM
